- System: K562
- assay-protocol: NCI tumour cell line growth inhibition, 48 h
The source made the active and inactive calls. Cut-off read from the data, not from the text of the source: active = GI50 up to about 1.1 µM and inactive = higher.
Outcomes: true (1) for active, false (0) for inactive

[
  {
    "compound": "O=C1Nc2ccccc2/C1=C\\c1c(Cl)nc2n1CCS2",
    "assigned-class": "false (0)"
  },
  {
    "compound": "CCOC(=O)c1ccc(NCc2ccc3oc(=O)c(-c4ccccc4)nc3c2)cc1",
    "assigned-class": "false (0)"
  },
  {
    "compound": "CCOC(=O)c1sc2c(c1OC(=O)c1ccco1)c(=O)n(-c1ccccc1)c(=S)n2-c1ccccc1",
    "assigned-class": "false (0)"
  },
  {
    "compound": "CN1CC(c2ccccc2)N(CCCCN2CC(c3ccccc3)N(C)CC2c2ccccc2)CC1c1ccccc1 (stereo not drawn)",
    "assigned-class": "false (0)"
  },
  {
    "compound": "Cc1ccc2[nH]c3c(c2c1)C1CCC(C(C)(C)C)CC1C1C(=O)N(c2ccc4c(c2)OCO4)C(=O)C31 (stereo not drawn)",
    "assigned-class": "false (0)"
  },
  {
    "compound": "C=C(C)/C=C/C(O)[C@](C)(O)[C@H]1[C@H](O)C[C@@]2(C)[C@@H]3CCc4c(cc(OC5OC(CO)C(O)C(O)C5O)c(O)c4C)C3(C)C(=O)C[C@]12C (stereo partly drawn)",
    "assigned-class": "false (0)"
  },
  {
    "compound": "C=CCn1cc(C(=O)NC(=O)NCCCCCOC(=O)CCCCCCCCCCC(=O)OCCCCCNC(=O)NC(=O)c2cn(CC=C)c(=O)n(C)c2=O)c(=O)n(C)c1=O",
    "assigned-class": "false (0)"
  },
  {
    "compound": "O=C1CCCC1C(=O)Nc1ccc2ccccc2c1 (stereo not drawn)",
    "assigned-class": "false (0)"
  },
  {
    "compound": "Cc1cc(O)c(C(C)C)cc1CN1CCCCC1",
    "assigned-class": "false (0)"
  },
  {
    "compound": "COc1ccc(-c2c(-c3ccccc3)c(C)nc3nc(SC)nc(SC)c23)cc1OC",
    "assigned-class": "false (0)"
  },
  {
    "compound": "COC1C(C)OC(OC2CC(C)(O)Cc3cc4c(c(O)c32)C(=O)c2c(O)cc3c(c2C4=O)OC2OC3(C)C(O)C(N(C)C)C2O)C(OC)C1(C)OC (stereo not drawn)",
    "assigned-class": "true (1)"
  },
  {
    "compound": "COC1O[C@@H]2CCN3C(=O)[C@@H](OC(=O)c4ccc([N+](=O)[O-])cc4)[C@H]1C23 (stereo partly drawn)",
    "assigned-class": "false (0)"
  },
  {
    "compound": "O=C1C(NCCc2ccc(O)c(O)c2)=CC(=O)c2ncccc21",
    "assigned-class": "false (0)"
  },
  {
    "compound": "CC(=O)n1nc(-c2[nH]c(C)c(-c3nn(C(C)=O)c(=S)o3)c2C)oc1=S",
    "assigned-class": "false (0)"
  },
  {
    "compound": "Cc1cc(S(=O)(=O)Nc2nc(N)n(C)n2)c(S)cc1Cl",
    "assigned-class": "false (0)"
  },
  {
    "compound": "Cc1ccc(S(=O)(=O)C2=Cc3ccc(C(F)(F)F)cc3C2(O)c2cccc(C(F)(F)F)c2)cc1 (stereo not drawn)",
    "assigned-class": "false (0)"
  },
  {
    "compound": "Nc1c(C(=O)NC23CC4CC(CC(C4)C2)C3)[n+]([O-])c2ccccc2[n+]1[O-]",
    "assigned-class": "false (0)"
  },
  {
    "compound": "CC(C)C(Nc1c2ccccc2nc2ccccc12)C(=O)O (stereo not drawn)",
    "assigned-class": "false (0)"
  }
]
